- PROCEDURE TEXT: yeast display, Sf9 membrane polyspecificity reagent, FACS + sequencing; frameworks hold sequencing errors

RESIDUE CODES: QVQLVESGGRLFQAGGSLRLSCAASRSIFSTYGKGWYRQPPGKERELVAAITSGVGRTNYADSVKGRFTISRDNAKNTVDLQMNSLKPEDTAVNYCAVRSLGTLDVYDLATEYDYWGQGTQVTVSS
polyreactivity (PSR sort gate): low polyreactivity
//
RESIDUE CODES: QVQLVESGGGLVQAGGSLRLTCAASGRTFEQNAMGWNRPAPGKERELVASITSVGSTDYADSVKGRFTISRDNAKNTVYLQMNSLKPEDTAVYYCAKTLGSQNYDFDYWGQGTQVTVSS
polyreactivity (PSR sort gate): low polyreactivity
//
RESIDUE CODES: QVQLVESGGGIVQAGGSLRLSCAASGIIFSWYAMGWYRQAPGKERELVAAISKGGGSTYYADSVKGRFTISRDNAKNTVYLQMNSLKPEDTAVYYCAAASSYGYGYWGQGTQVTVSS
polyreactivity (PSR sort gate): high polyreactivity
//
RESIDUE CODES: QVLLEDSGGGLVQAGARLRLICAASGRIHVNAMGWYRQAPGKERELVASINIGDGTHYADSVKGRFTISRANAKNTVYLQLNSLISEVTAVYYCAADSRSSNACYDYWGQGTQVSVSS
polyreactivity (PSR sort gate): low polyreactivity
//
RESIDUE CODES: QVQLVESVGGLVQAGGSLRLSSAASGSTFRGYALGWYRQSPGKERELVASISWSGGSTYYADSVKGRFTISRDNAKNTVYLQMNSLKQEDTAVYYCAARKRWRNIRMDYWGQGTQVTVSS
polyreactivity (PSR sort gate): high polyreactivity

====

- PROCEDURE TEXT: yeast display, Sf9 membrane polyspecificity reagent, FACS + sequencing; frameworks hold sequencing errors

RESIDUE CODES: HVQLVESGGGLVQAGGSLRLSCAASGRNFIYNAMGWSSPAPGTDRELVAAINRSGVSTHYADSVKGRFTISRDNAKKTVYLQMNSLKPEDTAVEYCARTVYGARSYDYWGQGTQVTVSS
polyreactivity (PSR sort gate): low polyreactivity
--
RESIDUE CODES: QVQLVESGGGLVQAGGSLRLSCAASGITLYEYAMGWYRQAPGKERELVAAISTSGGRTRYADSVKGRFTISRDNAKNTVYLQMNSLKPEDTAVYYCAASGFVQISNPRRDYWGQGTQVTVSS
polyreactivity (PSR sort gate): high polyreactivity
--
RESIDUE CODES: QVQLVESGGGLVQAGGSLRLSCAASGSTFVTYAMGWYRQAPGKERELVASISRGGSTKYADSVKGRFTISRDNAKNTVYLQMNSLKPEDTAVYYCAAKAKNYRLGPFDYWGQGTQVTVSS
polyreactivity (PSR sort gate): low polyreactivity
--
RESIDUE CODES: QVQLVESGGGLVQAGGSLRLSCAASGSTLYRYTMGWYRQAPGKERELVAAISSGGNTYYADSVKGRFTISRDNAKNTVYLQMNSLKPEDTAVYYCAAEDSVYIPYYDAYDYWGQGTQVTVSS
polyreactivity (PSR sort gate): low polyreactivity
--
RESIDUE CODES: QVQLVESGGGLVQAGGSLRLSCAASGSIFPPYAIGSYRQAPGKERELVATITIRGGSTYYADSVKGRFTISRDNAKNTVYLQMNSLKPEDTAVYYCAADYTKYYRRYYYWGQGTQVTVSS
polyreactivity (PSR sort gate): high polyreactivity

====

- PROCEDURE TEXT: yeast display, Sf9 membrane polyspecificity reagent, FACS + sequencing; frameworks hold sequencing errors
REPORTED ENDPOINT: polyreactivity (PSR sort gate)

RESIDUE CODES: QVQLVESGGGLVQAGGSLRLSCAASGFIFGYYAMGWYRQAPGKERELVAAISWSGVSTYYADSVKGRFTISSDNAKNTVDLQMNSLKPEDTAVYYCAVGYVLTGVFQARFDYWGQGTQVTVSS
REPORTED ENDPOINT: polyreactivity (PSR sort gate)
REPORTED RESULT: high polyreactivity
//
RESIDUE CODES: QVQLVESGGGLVQAGGSLRLSCAASGFTFWIYAMGWYRQAPGKERELVAVISRGGSTYYADSVKGRFTISRDNAKNTVYLQMNSMKPEDTAVYYCNAVGVRGYDYWGQGTQVTVSS
REPORTED ENDPOINT: polyreactivity (PSR sort gate)
REPORTED RESULT: high polyreactivity

====

- PROCEDURE TEXT: yeast display, Sf9 membrane polyspecificity reagent, FACS + sequencing; frameworks hold sequencing errors
REPORTED ENDPOINT: polyreactivity (PSR sort gate)

RESIDUE CODES: QVQLVESGGGLVQAGGSLRLSCAASGRIFSRYAMGWYRQAPGKERELVAAINKSGGSTYYADSVKGRFTISRDNEKYTVYLQMNSLKPEDTAVDYCNAVYYWYKGDYWGQGTQVTVSS
REPORTED RESULT: high polyreactivity
--
RESIDUE CODES: QVQLVESGGGLVQAGGSLRLSSAASGLTFESYAIGWYRQAPWKERELVAAISFSCGSTNYADAVKGRFTISRDNAKNTVYLQLNSLKPEDTAVYYCAAEYGSPRGTGYDSWGQGTQVTVSS
REPORTED RESULT: high polyreactivity
--
RESIDUE CODES: QVQLVESGGALVQAGGSLRLSSAASGSIFGSNGIGSYRPAPGKERELVAAITRSGGSTRYADSVKGRFTISRDNAKNTVYLQMNSLKPEDTAVYYCAKYDTSTGYDYWGQGTQVTVSS
REPORTED RESULT: high polyreactivity
--
RESIDUE CODES: QVQLVESGGGLVQAGGSLRLSCAASGSIFGYYAMGWYRQAPGKERELVAAISRRGGRTYYADSVKGRFTISRDNAKNTVYLQMNSLKPEDTAVYYCAAAVSVSASPYTGFDYWGQGTQVTVSS
REPORTED RESULT: high polyreactivity

====

- PROCEDURE TEXT: yeast display, Sf9 membrane polyspecificity reagent, FACS + sequencing; frameworks hold sequencing errors
REPORTED ENDPOINT: polyreactivity (PSR sort gate)

RESIDUE CODES: QVQIVESGGGLVQAGGSLRLSCAASGLTFAYYAMGRYRQAPGKERELVAAISYSGGSTYYADSVKGRFTISRDNAKITVYLQMNSLKPEDTAVYYCNAYSRKTPHLYYYWGQGTQVTVSS
REPORTED ENDPOINT: polyreactivity (PSR sort gate)
REPORTED RESULT: high polyreactivity
--
RESIDUE CODES: QVKLVESGGGLVQAGGSLRLSCAASGFILGYYAMGWYRQAPGKERELVASISRRGGSTYYADSVKGRFTISRDNAKNTVYLQMNSLKPEDTAVYYCAASGYGRYPPYEYWGQGTQVTVSS
REPORTED ENDPOINT: polyreactivity (PSR sort gate)
REPORTED RESULT: high polyreactivity
--
RESIDUE CODES: QVQLVESGGGLVQAGGSLRLSCAASGIIFGKYAMGGYRQAPGKERELVAAISSSGGRTYYADSGKGRFTISRDNAKNNVYLQMNSLKPEDTAVYYCAAVPGPGYYHYGYWGQGTQVTVSS
REPORTED ENDPOINT: polyreactivity (PSR sort gate)
REPORTED RESULT: high polyreactivity
--
RESIDUE CODES: QVQLVESGGGLVQAGGSLRLSCAASGSTFARNVMGWYRHAPGKERELVAAITRSGGSTYYADSVKGRFTISRDNAKNTVYFQMNSLKPEDTAVYYCNRDFRGLAYSDRYDYWGQGTQVTVSS
REPORTED ENDPOINT: polyreactivity (PSR sort gate)
REPORTED RESULT: low polyreactivity
--
RESIDUE CODES: QVQLVESGGGLVQAGGSLRLSCAASGNIFWRYGMGWYRQAPGKERELVAAITSGGTGTYYADSVKGRFTISRDNAKNTVYLQMNSLKPEDTAVYYCAARRWTNHYFYGWFYYWGQGTQVTVSS
REPORTED ENDPOINT: polyreactivity (PSR sort gate)
REPORTED RESULT: high polyreactivity
--
RESIDUE CODES: QVQLVESGGGLVQAGGSLRLSCAASGSTFQFNAMGWYRQAPGKEREFVAAITSSAGRTYYADSVKGRFTISRDNAKNTVYLQMNSLKPEDTAVYYCAATFYRRYVDLGYWGQGTQVTVSS
REPORTED ENDPOINT: polyreactivity (PSR sort gate)
REPORTED RESULT: high polyreactivity
--
RESIDUE CODES: QVQLVESGGGLVQAGGSLRLSCAASGSTFVGYAMGWYRPAPGKERELVAAITIRGGSTYYADSVKGRFTISRDNAKNNVYLQMNSLKPEDTAVYYCAADYWYGGFEYWGQGTQVTVSS
REPORTED ENDPOINT: polyreactivity (PSR sort gate)
REPORTED RESULT: low polyreactivity
--
RESIDUE CODES: QVQLVESGGGLVQAGGSLRLSCAASGNILRGYAMGWYRQAPGKERELVAAINRGGGSTYYADSVKGRFTISRDNAKNTVYLQMNSLKPEDTAVYYCAARYPHRGYTFDYWGQGTQVTVSS
REPORTED ENDPOINT: polyreactivity (PSR sort gate)
REPORTED RESULT: low polyreactivity
--
RESIDUE CODES: QVQLVESGGGLVQAGGSLRLSCAASGRIFLTNAMGSYRQAPGKERELVAAIRFSGGRTYYADSVKGRFTISRDNAKNTVYLQMNSLKPEDNAVYYCAADPPRTRYRNARFDYWGQGTQVTVSS
REPORTED ENDPOINT: polyreactivity (PSR sort gate)
REPORTED RESULT: high polyreactivity
--
RESIDUE CODES: QVQLVESGGGLVQAGGSLRLSCAASGSIFTNYAMGWYRQAPGKERELVAAISVGGGRTYYADSVKGRFTISRDNAKNTVYLQMNSLKPEDTAVYYCAASRRTRSMNYWGQGTQVTVSS
REPORTED ENDPOINT: polyreactivity (PSR sort gate)
REPORTED RESULT: high polyreactivity
--
RESIDUE CODES: QVQLVESGGGLVQAGGSLRLSCAASGRTFHGYALGWYRQAPGKERELVARINWSDGRTYYADSVKGRFTISRDNAKNTVYLQMNSLKPEDTAVYYCAADKTVSYAPAWYYYWGQGTQVTVSS
REPORTED ENDPOINT: polyreactivity (PSR sort gate)
REPORTED RESULT: low polyreactivity
